src = patent US9255093B2

# test_target: hERG (human ether-a-go-go-related gene) potassium channel (Homo sapiens, UniProt Q12809)
# Sequence (Q12809 whole entry): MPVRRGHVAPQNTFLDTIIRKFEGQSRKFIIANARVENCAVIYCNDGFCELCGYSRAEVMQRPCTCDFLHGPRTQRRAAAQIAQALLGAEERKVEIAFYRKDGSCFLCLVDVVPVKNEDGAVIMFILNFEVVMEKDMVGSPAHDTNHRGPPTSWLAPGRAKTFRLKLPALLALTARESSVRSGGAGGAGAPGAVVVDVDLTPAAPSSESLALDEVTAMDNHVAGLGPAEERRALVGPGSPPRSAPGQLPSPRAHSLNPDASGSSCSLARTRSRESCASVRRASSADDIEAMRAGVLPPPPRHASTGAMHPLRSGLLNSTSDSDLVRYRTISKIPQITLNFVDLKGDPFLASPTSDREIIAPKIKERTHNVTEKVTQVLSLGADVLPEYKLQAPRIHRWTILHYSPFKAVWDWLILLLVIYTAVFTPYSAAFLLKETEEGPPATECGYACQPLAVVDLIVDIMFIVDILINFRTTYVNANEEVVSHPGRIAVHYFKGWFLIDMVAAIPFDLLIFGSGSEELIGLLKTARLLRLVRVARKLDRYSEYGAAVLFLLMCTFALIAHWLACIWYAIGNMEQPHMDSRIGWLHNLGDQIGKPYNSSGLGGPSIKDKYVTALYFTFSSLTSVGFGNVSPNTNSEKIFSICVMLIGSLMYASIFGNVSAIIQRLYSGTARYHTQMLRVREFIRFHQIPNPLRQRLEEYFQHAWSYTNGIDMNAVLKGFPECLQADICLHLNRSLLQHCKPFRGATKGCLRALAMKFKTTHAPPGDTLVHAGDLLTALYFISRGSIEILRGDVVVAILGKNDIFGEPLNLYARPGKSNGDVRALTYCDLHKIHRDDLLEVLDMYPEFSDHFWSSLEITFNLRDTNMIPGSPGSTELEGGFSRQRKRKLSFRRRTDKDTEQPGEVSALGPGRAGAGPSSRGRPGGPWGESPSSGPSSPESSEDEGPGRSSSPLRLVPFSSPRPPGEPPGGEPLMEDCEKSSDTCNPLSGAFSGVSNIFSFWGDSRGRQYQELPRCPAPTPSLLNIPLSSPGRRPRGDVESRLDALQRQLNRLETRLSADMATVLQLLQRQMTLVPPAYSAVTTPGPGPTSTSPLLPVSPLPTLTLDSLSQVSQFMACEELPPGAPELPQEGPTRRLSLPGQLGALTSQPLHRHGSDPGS
# assay_protocol: QPatch automated patch-clamp hERG activator 4-concentration EC50 assay
# cond: increase of hERG tail current amplitude at 7 second (TL7); 10 uM; hERG stably expressed in CHO cells
The following molecules are listed with their measured % change@TL7@10 uM values.
measured_quantity: % change@TL7@10 uM (%)

INSERT INTO measurements (molecule, unit_abbrev, measured) VALUES
  ('N#CCOc1ccc(NCc2ccc3cc(-c4nnn[nH]4)oc3c2Cl)cc1C(F)(F)F [Example 210]', '%', 134),
  ('Fc1cc2oc(-c3nnn[nH]3)cc2cc1CNc1ccc(OCC(F)(F)F)c(C(F)(F)F)c1 [Example 127]', '%', 268),
  ('Fc1ccc(NCc2ccc3cc(-c4nn[nH]n4)oc3c2)cc1CC(F)(F)F [Example 58]', '%', 71),
  ('Fc1c(CNc2ccc(OCC(F)(F)F)c(C(F)(F)F)c2)ccc2oc(-c3nnn[nH]3)cc12 [Example 142]', '%', 188),
  ('CSc1ccc(NCc2ccc3cc(-c4nn[nH]n4)oc3c2)cc1C(F)(F)F [Example 26]', '%', 267),
  ('FC(F)(F)COc1ccc(NCc2cc3oc(-c4nnn[nH]4)cc3cc2Br)cc1C(F)(F)F [Example 164]', '%', 308),
  ('O=C(O)c1cc2cc(F)c(CNc3ccc(SC(F)(F)F)c(Cl)c3)cc2o1 [Example 228]', '%', 140),
  ('FC(F)(F)COc1ccc(NCc2cc3oc(-c4nnn[nH]4)cc3cc2Cl)cc1C(F)(F)F [Example 22]', '%', 328),
  ('CCCc1ccc(NCc2cc3oc(-c4nnn[nH]4)cc3cc2Cl)cc1Cl [Example 12]', '%', 85),
  ('FC(F)(F)Oc1ccc(NCc2ccc3cc(-c4nn[nH]n4)oc3c2)cc1 [Example 63]', '%', 34),
  ('CCCc1ccc(NC(C)c2ccc3oc(-c4nnn[nH]4)cc3c2)cc1Cl (centres unmarked) [Example 84]', '%', 29),
  ('FC(F)(F)COc1ccc(NCc2cc3oc(-c4nnn[nH]4)cc3cc2Cl)cc1Cl [Example 8]', '%', 128),
  ('O=C(c1ccc(NCc2ccc3cc(-c4nnn[nH]4)oc3c2)cc1)C(F)(F)F [Example 30]', '%', 228),
  ('O=C(O)c1cc2ccc(CNc3ccc(S(F)(F)(F)(F)F)cc3)cc2o1 [Example 99]', '%', 157),
  ('FC(F)Oc1ccc(NCc2ccc3c(C(F)(F)F)c(-c4nnn[nH]4)oc3c2)cc1C(F)(F)F [Example 60]', '%', 58),
  ('O=C(O)c1cc2ccc(CNc3cc(F)c(F)c(Br)c3)cc2o1 [Example 106]', '%', 90),
  ('FC(F)(F)Sc1ccc(NCc2ccc3oc(-c4nnn[nH]4)cc3c2)cc1Cl [Example 64]', '%', 348);

---

The following compounds are listed with their measured % change@TL7@10 uM values.
# test_target: hERG (human ether-a-go-go-related gene) potassium channel (Homo sapiens, UniProt Q12809)
# assay_protocol: QPatch automated patch-clamp hERG activator 4-concentration EC50 assay
# cond: increase of hERG tail current amplitude at 7 second (TL7); 10 uM; hERG stably expressed in CHO cells
measured_quantity: % change@TL7@10 uM (%)

INSERT INTO measurements (compound, measured_quantity, measured) VALUES
  ('Fc1ccc(NCc2cc3oc(-c4nnn[nH]4)cc3cc2F)cc1Cl [Example 215]', '% change@TL7@10 uM', 132),
  ('CCOc1c(Cl)cc(NCc2ccc3c(C(F)(F)F)c(-c4nnn[nH]4)oc3c2)cc1Cl [Example 49]', '% change@TL7@10 uM', 106),
  ('Fc1ccc(NCc2cc3oc(-c4nnn[nH]4)cc3cc2Cl)cc1OC(F)(F)F [Example 9]', '% change@TL7@10 uM', 78),
  ('CC(Nc1cc(Cl)c(Cl)c(Cl)c1)c1ccc2oc(-c3nnn[nH]3)cc2c1 (stereo not shown) [Example 73]', '% change@TL7@10 uM', 132);
